compounds and their reported ratio
Test system: HeLa cells (tumor cell line)
Assay: FDA-PI viability/proliferation assay on HeLa tumor cells
Assay type: cell-based
Details: PBL viability IC50 / HeLa viability IC50
result.type: ratio

1) CN1CCN(c2cc3[nH]c(-c4n[nH]cc4NC(=O)N4CCCCC4)nc3cc2F)CC1.O=C(O)C(F)(F)F ... 62
2) Cl.O=C(Nc1c[nH]nc1-c1nc2cc(F)c(N3CCOCC3)cc2[nH]1)N1CCCCC1 ... 70
3) O=C(Nc1c[nH]nc1-c1nc2cc(F)c(N3CCCOCC3)cc2[nH]1)N1CCCCC1 ... 108
4) CCN(CC)C(=O)Nc1c[nH]nc1-c1nc2cc(F)c(N3CCCN(C)CC3)cc2[nH]1 ... 96
5) CN1CCCN(c2cc3[nH]c(-c4n[nH]cc4NC(=O)N4CCCCC4)nc3cc2F)CC1.O=C(O)C(F)(F)F ... 42

====

Tested on: PBLs (quiescent cells, peripheral blood lymphocytes)
Assay: FDA-PI viability assay on quiescent PBLs
Assay type: cell-based
Conditions: Lymphocyte, 48 h incubation, read-out: Viability PBL IC50
pIC50: −log10 of the molar value.
result.type: pIC50

1. CN1CCN(c2cc3[nH]c(-c4n[nH]cc4NC(=O)N4CCCCC4)nc3cc2F)CC1.O=C(O)C(F)(F)F [Example 12, Trifluoroacetate] ... 5.46
2. O=C(Nc1c[nH]nc1-c1nc2cc(F)c(N3CCCOCC3)cc2[nH]1)N1CCCCC1 [Example 38] ... 5.04
3. Cl.O=C(Nc1c[nH]nc1-c1nc2cc(F)c(N3CCOCC3)cc2[nH]1)N1CCCCC1 [Example 1, Hydrochloride] ... 5.12
4. CCN(CC)C(=O)Nc1c[nH]nc1-c1nc2cc(F)c(N3CCCN(C)CC3)cc2[nH]1 [Example 18] ... 5.42
5. CN1CCCN(c2cc3[nH]c(-c4n[nH]cc4NC(=O)N4CCCCC4)nc3cc2F)CC1.O=C(O)C(F)(F)F [Example 17, Trifluoroacetate] ... 5.37
